- subjectOfTest: PD-L1 (Homo sapiens (Human), UniProt Q9NZQ7)
- Sequence (Q9NZQ7 19-238): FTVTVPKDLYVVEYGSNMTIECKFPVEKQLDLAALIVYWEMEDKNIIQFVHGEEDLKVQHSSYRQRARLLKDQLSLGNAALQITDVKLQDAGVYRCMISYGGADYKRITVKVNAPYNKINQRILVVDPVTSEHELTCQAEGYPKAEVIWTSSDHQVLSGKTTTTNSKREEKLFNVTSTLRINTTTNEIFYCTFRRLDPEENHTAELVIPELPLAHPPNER
- protocol: PD-L1 HTRF assay (PD-1/PD-L1 interaction)
- conditions: PD-L1 His 6 nM, PD-1 Fc 6 nM; inhibitors 3-fold diluted from 20 μM
Listing of recorded IC50 by entry.
Your answer is read as nM, so omit the unit and give the number.

Examples with answers:
substancesmiles=Cc1c(COc2ccc(-c3ncc[nH]3)c(OCc3cccc(C#N)c3)c2)cccc1-c1ccccc1 reportedvalue=20000
substancesmiles=Cc1c(COc2ccc(-c3nccn3CCO)c(OCc3cccc(C#N)c3)c2)cccc1-c1ccccc1 reportedvalue=1800

IN: Please report IC50 for the following compound: "Cc1c(NC(=O)c2ccc(CNCCO)cn2)cccc1-c1cccc(NC(=O)c2ccc(CN(C)CCO)cn2)c1C"
OUT: 0.9

IN: // Input: "COC(=O)c1c[nH]c(-c2cc(Cl)c(OCc3cccc(-c4cccc(OCCCN5CCC(O)CC5)c4C)c3C)cc2OCc2cncc(C#N)c2)n1" . Output its IC50 only.
OUT: 10
